assay_name: yeast display, Sf9 membrane polyspecificity reagent, FACS + sequencing; frameworks hold sequencing errors
quantity_name: polyreactivity (PSR sort gate)

- sequence_record: "QVQLVESGGGLVQAGGSLRLSCAASGFIFRRYALGWYRQAPGKERELVAAISWGGTSTYYADSVKGRFTISRDNAKNTVYLQMNSLKPVDTAGYYCAADRSVRTRGGFDYWGQGTQVTVSS"
  assay_value: "high polyreactivity"
- sequence_record: "QVQLVESRGGLVQAGGSLRLSCSASGFIRTYAMGWYRQAPAKERELVAAITSSGGRTNYADSVKGRFTISRDNAKNTVYLQMNSLKPEDTAVYYCAAGLGRYLRYNYWGQGTQVTVSS"
  assay_value: "high polyreactivity"
- sequence_record: "QVQLVESGGGLVQAGGSLRLSCAASGSIFFYAMGWYRQAPGKERELVADITYTGGSKYADSEKGRFTISRDNAKNTVYLQMNSLKPEETAVYSGATLDGGLFDDWGQGTQVTVSS"
  assay_value: "low polyreactivity"
- sequence_record: "QVQLVESGGGLVQAGGSLRLSCAASGRIFQTYAMGWYRQAPGKERELVASISWSGGSTYYADSVKGRFTILRDNAKNTVYLQMNSLKPEDTAVYYCAAVYYSTDYYFWYDYWGQGTQVTVSS"
  assay_value: "low polyreactivity"
- sequence_record: "QVQLVESGGGLVQAGGSLRLSCAASGSTLSDKSIGWYRQAPGKEMELVASISWSGGTYYADSVKGRFTISRDNAKNTVYLQMNSLKPEDTAVYYCAAYIYYNYSRQYLYDYWGQGTQVTVSS"
  assay_value: "low polyreactivity"

---

assay_name: yeast display, Sf9 membrane polyspecificity reagent, FACS + sequencing; frameworks hold sequencing errors

- sequence_record: "QVQLVESGGGIVQAGGSLRLSCAASGSTFVIYTMGWYRPAPGKERELVAAISWSGGITRYADSVKGRFTISRDNAKNTVYLQMNSLKPEDSAVYYCNASQWPSRFDYWGQGTQVTVSS"
  polyreactivity (PSR sort gate): "low polyreactivity"
- sequence_record: "QVQLVESGGGLVQAGGSLRLSCAASGGIFFSYAMGWYRQAPGKERELVAAIRTNGGTTYYADSVKGRFTISRDNAKNTVYLQMNRLKPEDTAVYYCAALPGGYYDRGEYDYWGQGTQVTVSS"
  polyreactivity (PSR sort gate): "low polyreactivity"
- sequence_record: "QVQLVESGGGLVQAGGSLRLSCAASGSIFIWYAMGWYRQAPGKERELVAAITSSGSTNYADSVKGRFTISRDNAKNTVYLQMNSLKPEDTAVYYCADEYTYYTYNLNYWGQGTQVTVSS"
  polyreactivity (PSR sort gate): "low polyreactivity"

---

assay_name: yeast display, Sf9 membrane polyspecificity reagent, FACS + sequencing; frameworks hold sequencing errors

- sequence_record: "QVQLVESGGGLVQAGGSLRLSCAASGFISGGNAMGWYRQAPGKEREFVAAIDNTGSTYYADSVKGRFTISRDNAKNTVYLQMNSLKPEDTAVYYCNAEVSEDYVDNDYWGQGTQVTVSS"
  polyreactivity (PSR sort gate): "low polyreactivity"
- sequence_record: "QVQLVESGGGLVQAGGSLRLSCAASGFTFIQYDMGWYRQAPGKERELVAAISSSGGSTYYADSVNGRFTISRDNAKNTFYLQMNSLKPEDTGVYYCAADPWVRLEYDYWGQGTQVTVSS"
  polyreactivity (PSR sort gate): "low polyreactivity"

Taken from the nanobody polyreactivity screen of Harvey et al. (2022).
